Values compiled from patent US20230233569A1.

Target: NRAS G12C (Homo sapiens, UniProt P01111+P62937, G12C)
Sequence (P01111 whole entry G12C): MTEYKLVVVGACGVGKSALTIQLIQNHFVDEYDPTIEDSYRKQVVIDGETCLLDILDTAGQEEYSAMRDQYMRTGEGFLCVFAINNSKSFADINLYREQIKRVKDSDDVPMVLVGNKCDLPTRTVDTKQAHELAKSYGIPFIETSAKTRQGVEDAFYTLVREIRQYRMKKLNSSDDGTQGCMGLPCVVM
Sequence (P62937 whole entry): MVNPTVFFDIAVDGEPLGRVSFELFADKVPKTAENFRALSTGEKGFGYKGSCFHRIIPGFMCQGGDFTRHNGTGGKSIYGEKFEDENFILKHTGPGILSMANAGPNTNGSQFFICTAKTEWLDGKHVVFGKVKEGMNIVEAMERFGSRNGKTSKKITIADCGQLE
Test: Disruption of BRAF RBD interaction with Ras (FRET / MOA assay, with Cyclophilin A)
Type: biochemical
Settings: NRAS G12C; read-out: NRAS G12C FRET data IC50
Description: This protocol may also be executed substituting other Ras proteins or nucleotides. The purpose of this biochemical assay was to measure the ability of test compounds to facilitate ternary complex formation between a nucleotide-loaded K-Ras isoform and Cyclophilin A; the resulting ternary complex disrupts binding to a BRAF^RBD construct, inhibiting K-Ras signaling through a RAF effector. Data is reported as IC50 values. […]
Catalogue of IC50 readings, one per entry.

COMPOUND | TARGET_DESC | IC50
C=CC(=O)N(C)CCC1CCN(C(=O)N(C)[C@H](C(=O)N[C@H]2Cc3nc(cs3)-c3ccc4c(c3)c(c(-c3cccnc3[C@H](C)OC)n4CC)CC(C)(C)COC(=O)C3CCCN(N3)C2=O)C(C)C)CC1 (some centres unmarked) [Example A621] | NRAS G12C (Homo sapiens, UniProt P01111+P62937, G12C) | 10 to 100 nM

Query: Short answer please: IC50, NRAS G12C (Homo sapiens, UniProt P01111+P62937, G12C), entry C=CC(=O)N1CCOC2(CCN(C(=O)N(C)[C@H](C(=O)N[C@H]3Cc4cccc(c4)-c4ccc5c(c4)c(c(-c4cccnc4[C@H](C)OC)n5CC(F)(F)F)CC(C)(C)COC(=O)C4CCCN(N4)C3=O)C(C)C)CC2)C1 (some centres unmarked) [Example A608]
Result: 100 to 1000 nM
